Could you please report measured pIC50 for the items listed next?
Target Of Assay: NLRP3 (Homo sapiens, UniProt Q96P20)
Sequence (Q96P20 whole entry): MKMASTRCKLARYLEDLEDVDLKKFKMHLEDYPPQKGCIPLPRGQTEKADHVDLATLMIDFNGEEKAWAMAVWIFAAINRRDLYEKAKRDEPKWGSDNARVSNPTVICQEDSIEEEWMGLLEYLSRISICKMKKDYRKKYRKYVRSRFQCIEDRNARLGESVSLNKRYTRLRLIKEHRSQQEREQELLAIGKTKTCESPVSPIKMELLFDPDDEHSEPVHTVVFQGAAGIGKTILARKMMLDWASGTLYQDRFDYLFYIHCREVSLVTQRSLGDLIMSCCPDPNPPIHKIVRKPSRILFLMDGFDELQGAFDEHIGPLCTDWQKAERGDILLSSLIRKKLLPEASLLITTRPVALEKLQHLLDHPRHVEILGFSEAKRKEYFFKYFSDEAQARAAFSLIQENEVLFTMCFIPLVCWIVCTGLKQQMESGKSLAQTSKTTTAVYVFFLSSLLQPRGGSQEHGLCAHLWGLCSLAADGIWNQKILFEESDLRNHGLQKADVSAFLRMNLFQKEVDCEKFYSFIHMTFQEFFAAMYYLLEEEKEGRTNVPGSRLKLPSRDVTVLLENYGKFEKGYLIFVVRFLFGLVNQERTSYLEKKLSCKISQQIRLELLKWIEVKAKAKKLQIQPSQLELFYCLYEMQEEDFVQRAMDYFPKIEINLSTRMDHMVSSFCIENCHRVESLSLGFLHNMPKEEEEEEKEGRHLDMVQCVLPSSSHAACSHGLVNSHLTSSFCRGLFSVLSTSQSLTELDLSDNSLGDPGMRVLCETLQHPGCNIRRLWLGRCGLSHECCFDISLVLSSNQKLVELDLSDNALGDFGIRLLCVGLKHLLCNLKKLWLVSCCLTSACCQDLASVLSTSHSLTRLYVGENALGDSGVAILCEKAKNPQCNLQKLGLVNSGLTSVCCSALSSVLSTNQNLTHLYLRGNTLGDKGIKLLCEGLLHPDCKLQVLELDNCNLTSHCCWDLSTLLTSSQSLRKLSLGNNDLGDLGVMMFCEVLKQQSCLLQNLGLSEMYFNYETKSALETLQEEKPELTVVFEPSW
Test: THP-1 cells pyroptosis assay
Assay type: cell-based
Set-up: Seed THP-1 cells (25,000 cells/well) containing 1.0 μg/ml LPS; host or cells: THP-1 cells, LPS-primed, nigericin-stimulated
Protocol Conditions: LPS 1 μg/ml, nigericin 5 μM, resazurin readout
pIC50: −log10 of the molar value.

I'd like to know its pIC50. The molecule in question is CCn1cc(S(=O)(=O)NC(=O)Nc2c3c(cc4c2CCC4)CCC3)nc1C
6.19 to 6.80

I'd like to know its pIC50. The molecule in question is CC(C)n1cnc(S(=O)(=O)NC(=O)Nc2c3c(cc4c2CCC4)CCC3)c1
6.19 to 6.80

I'd like to know its pIC50. The molecule in question is Cc1nc(S(=O)(=O)NC(=O)Nc2c3c(cc4c2CCC4)CCC3)cn1CCO
5.59 to 6.19

I'd like to know its pIC50. The molecule in question is COc1cc(-c2cc(F)cc(C(C)C)c2NC(=O)NS(=O)(=O)c2cn(C(C)C)cn2)ccn1
6.80 to 7.40

I'd like to know its pIC50. The molecule in question is C[C@H](O)Cn1cnc(S(=O)(=O)NC(=O)Nc2c3c(cc4c2CCC4)CCC3)c1
6.19 to 6.80

I'd like to know its pIC50. The molecule in question is CC(C)c1cccc(C(C)C)c1NC(=O)NS(=O)(=O)c1cn(C(C)C)cn1
5.00 to 5.59

I'd like to know its pIC50. The molecule in question is CN(C)CCn1cnc(S(=O)(=O)NC(=O)Nc2c3c(cc4c2CCC4)CCC3)c1
5.59 to 6.19

I'd like to know its pIC50. The molecule in question is Cn1ccnc1S(=O)(=O)NC(=O)Nc1c2c(cc3c1CCC3)CCC2
5.00 to 5.59

I'd like to know its pIC50. The molecule in question is CC(C)c1cc(F)cc(-c2cnn(C)c2)c1NC(=O)NS(=O)(=O)c1cn(C(C)C)cn1
5.00 to 5.59

I'd like to know its pIC50. The molecule in question is Cc1nc(S(=O)(=O)NC(=O)Nc2c3c(cc4c2CCC4)CCC3)cn1CC1CCCO1 (stereo not shown)
6.19 to 6.80

I'd like to know its pIC50. The molecule in question is CC(C)c1nc(S(=O)(=O)NC(=O)Nc2c3c(cc4c2CCC4)CCC3)cn1C
5.59 to 6.19

I'd like to know its pIC50. The molecule in question is CC(C)n1cnc(S(=O)(=O)NC(=O)Nc2c(-c3ccnc(C#N)c3)ccc3c2CCC3)c1
> 7.40

I'd like to know its pIC50. The molecule in question is C[C@@H](O)Cn1cnc(S(=O)(=O)NC(=O)Nc2c3c(cc4c2CCC4)CCC3)c1
6.19 to 6.80

I'd like to know its pIC50. The molecule in question is Cn1cnc(S(=O)(=O)NC(=O)Nc2c3c(cc4c2CCC4)CCC3)c1
5.59 to 6.19

I'd like to know its pIC50. The molecule in question is CC(C)c1ncc(S(=O)(=O)NC(=O)Nc2c3c(cc4c2CCC4)CCC3)n1C
6.19 to 6.80

I'd like to know its pIC50. The molecule in question is Cc1nc(S(=O)(=O)NC(=O)Nc2c3c(cc4c2CCC4)CCC3)cn1C(C)C
6.19 to 6.80

I'd like to know its pIC50. The molecule in question is COc1cc(-c2ccc3c(c2NC(=O)NS(=O)(=O)c2cn(C(C)C)cn2)CCC3)ccn1
6.80 to 7.40

I'd like to know its pIC50. The molecule in question is CC(C)c1cc(F)cc(-c2ccnc(C#N)c2)c1NC(=O)NS(=O)(=O)c1cn(C(C)C)cn1
6.19 to 6.80

I'd like to know its pIC50. The molecule in question is CN(C)Cc1c(S(=O)(=O)NC(=O)Nc2c3c(cc4c2CCC4)CCC3)ncn1C
6.19 to 6.80

---

Could you please report measured pIC50 for the items listed next?
Target Of Assay: NLRP3 (Homo sapiens)
Test: Human whole blood IL1β release assay
Format: cell-based
Parameters: Plate out 80 μl of whole blood containing 1 μg/ml of LPS; from tissue; host or cells: human whole blood from healthy donors, LPS-primed, nigericin-stimulated
Protocol Conditions: LPS 1 μg/ml, nigericin 10 μM, IL-1β AlphaLisa, read-out: HWB IC50
pIC50: −log10 of the molar value.

I'd like to know its pIC50. The molecule in question is CCn1cc(S(=O)(=O)NC(=O)Nc2c3c(cc4c2CCC4)CCC3)nc1C
5.00 to 5.49

I'd like to know its pIC50. The molecule in question is CN(C)CCn1cnc(S(=O)(=O)NC(=O)Nc2c3c(cc4c2CCC4)CCC3)c1
5.49 to 5.80

I'd like to know its pIC50. The molecule in question is CN(C)Cc1c(S(=O)(=O)NC(=O)Nc2c3c(cc4c2CCC4)CCC3)ncn1C
5.80 to 6.10

I'd like to know its pIC50. The molecule in question is C[C@H](O)Cn1cnc(S(=O)(=O)NC(=O)Nc2c3c(cc4c2CCC4)CCC3)c1
5.80 to 6.10

I'd like to know its pIC50. The molecule in question is CC(C)c1cc(F)cc(-c2ccnc(C#N)c2)c1NC(=O)NS(=O)(=O)c1cn(C(C)C)cn1
6.10 to 6.40

I'd like to know its pIC50. The molecule in question is Cc1nc(S(=O)(=O)NC(=O)Nc2c3c(cc4c2CCC4)CCC3)cn1C(C)C
5.49 to 5.80

I'd like to know its pIC50. The molecule in question is Cc1nc(S(=O)(=O)NC(=O)Nc2c3c(cc4c2CCC4)CCC3)cn1CC1CCCO1 (centres unmarked)
5.80 to 6.10

I'd like to know its pIC50. The molecule in question is Cc1nc(S(=O)(=O)NC(=O)Nc2c3c(cc4c2CCC4)CCC3)cn1CCO
5.80 to 6.10

---

Target Of Assay: UniProt:Q96P20
Test: Human whole blood IL1β release assay
Type: cell-based
Design: Plate out 80 μl of whole blood containing 1 μg/ml of LPS; from tissue; host or cells: human whole blood from healthy donors, LPS-primed, nigericin-stimulated
Protocol Conditions: LPS 1 μg/ml, nigericin 10 μM, IL-1β AlphaLisa, read-out: HWB IC50
Experimental: Human Whole Blood IL1β Release Assay For systemic delivery, the ability to inhibit NLRP3 when the compounds are present within the bloodstream is of great importance. […] Human whole blood in Li-heparin tubes was obtained from healthy donors from a volunteer donor panel. • 1. […] IL-1β was measured according to the manufacturer protocol (Perkin Elmer-AlphaLisa IL-1 Kit AL220F-5000) • 8. […]
Readout Label: IC50

I'd like to know its IC50. The compound in question is COc1cc(-c2cc(F)cc(C(C)C)c2NC(=O)NS(=O)(=O)c2cn(C(C)C)cn2)ccn1 [Example 5]
800 to 1600 nM

I'd like to know its IC50. The compound in question is CC(C)n1cnc(S(=O)(=O)NC(=O)Nc2c(-c3ccnc(C#N)c3)ccc3c2CCC3)c1 [Example 20]
< 400 nM

I'd like to know its IC50. The compound in question is COc1cc(-c2ccc3c(c2NC(=O)NS(=O)(=O)c2cn(C(C)C)cn2)CCC3)ccn1 [Example 21]
400 to 800 nM

I'd like to know its IC50. The compound in question is CC(C)c1nc(S(=O)(=O)NC(=O)Nc2c3c(cc4c2CCC4)CCC3)cn1C [Example 13]
3200 to 10000 nM

I'd like to know its IC50. The compound in question is CC(C)n1cnc(S(=O)(=O)NC(=O)Nc2c3c(cc4c2CCC4)CCC3)c1 [Example 15]
1600 to 3200 nM

I'd like to know its IC50. The compound in question is C[C@@H](O)Cn1cnc(S(=O)(=O)NC(=O)Nc2c3c(cc4c2CCC4)CCC3)c1 [Example 1]
800 to 1600 nM
